target: GCN2 kinase (Homo sapiens (Human), UniProt Q9P2K8)
Sequence (Q9P2K8 whole entry): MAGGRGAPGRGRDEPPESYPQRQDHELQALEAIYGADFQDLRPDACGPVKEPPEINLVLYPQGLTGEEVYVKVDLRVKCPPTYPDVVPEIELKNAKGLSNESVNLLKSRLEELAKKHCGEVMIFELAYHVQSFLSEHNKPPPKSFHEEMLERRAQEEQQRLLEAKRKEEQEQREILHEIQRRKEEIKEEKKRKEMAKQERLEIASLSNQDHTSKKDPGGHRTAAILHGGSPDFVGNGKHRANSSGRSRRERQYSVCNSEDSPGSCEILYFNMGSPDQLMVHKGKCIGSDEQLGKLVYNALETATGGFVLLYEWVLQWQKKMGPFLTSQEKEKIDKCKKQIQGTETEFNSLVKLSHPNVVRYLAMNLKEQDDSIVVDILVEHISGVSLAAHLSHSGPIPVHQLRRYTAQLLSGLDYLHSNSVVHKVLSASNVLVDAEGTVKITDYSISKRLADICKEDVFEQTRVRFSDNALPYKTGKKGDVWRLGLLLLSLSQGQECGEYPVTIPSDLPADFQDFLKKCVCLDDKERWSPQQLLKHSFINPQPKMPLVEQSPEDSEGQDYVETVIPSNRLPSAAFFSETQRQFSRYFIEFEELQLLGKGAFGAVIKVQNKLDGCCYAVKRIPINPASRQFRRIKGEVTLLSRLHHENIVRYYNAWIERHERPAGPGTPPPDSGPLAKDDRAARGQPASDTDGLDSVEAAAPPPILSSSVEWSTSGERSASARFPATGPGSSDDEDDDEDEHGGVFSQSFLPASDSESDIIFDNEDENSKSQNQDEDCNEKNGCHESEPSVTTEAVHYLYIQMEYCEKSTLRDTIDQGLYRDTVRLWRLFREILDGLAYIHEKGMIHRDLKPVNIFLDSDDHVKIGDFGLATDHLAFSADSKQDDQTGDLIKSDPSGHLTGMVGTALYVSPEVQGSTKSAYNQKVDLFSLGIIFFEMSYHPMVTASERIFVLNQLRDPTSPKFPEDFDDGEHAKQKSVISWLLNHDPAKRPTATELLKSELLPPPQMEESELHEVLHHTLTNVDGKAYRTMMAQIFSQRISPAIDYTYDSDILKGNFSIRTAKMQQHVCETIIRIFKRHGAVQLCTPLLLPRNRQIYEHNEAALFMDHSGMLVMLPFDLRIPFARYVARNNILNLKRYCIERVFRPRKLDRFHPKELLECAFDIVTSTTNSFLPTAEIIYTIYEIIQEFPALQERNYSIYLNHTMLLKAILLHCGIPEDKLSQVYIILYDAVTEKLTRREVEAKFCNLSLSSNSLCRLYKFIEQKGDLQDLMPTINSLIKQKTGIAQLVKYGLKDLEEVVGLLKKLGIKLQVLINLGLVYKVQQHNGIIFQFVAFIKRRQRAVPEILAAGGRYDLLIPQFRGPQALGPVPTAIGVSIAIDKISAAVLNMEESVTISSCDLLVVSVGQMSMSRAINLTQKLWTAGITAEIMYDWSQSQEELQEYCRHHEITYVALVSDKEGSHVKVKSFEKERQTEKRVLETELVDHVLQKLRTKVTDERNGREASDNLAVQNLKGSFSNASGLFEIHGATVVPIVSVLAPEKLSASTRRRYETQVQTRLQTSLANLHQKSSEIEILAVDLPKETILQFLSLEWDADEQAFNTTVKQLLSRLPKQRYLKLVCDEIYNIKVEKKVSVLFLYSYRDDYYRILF
pIC50: −log10 of the molar value.
Assay Endpoint: pIC50

// worked examples, pIC50 included
                                   compound        result
0  CC(C)(C(N)=O)C1CCCN(c2ccnc(-c3cnc4ccc(Cl)cn34)n2)C1 (centres unmarked) [I-309]  6.00 to 7.00
1  O=C([C@H]1C[C@H]1F)N1CCN(c2ccnc(-c3cnc4ccc(C(F)(F)F)cn34)n2)CC1c1cn[nH]c1 (stereo in doubt) [I-485]  7.00 to 8.00
2  Cc1[nH]ncc1C1N[C@@H](C)CN(c2nccc(-c3cnc4ccc(C(F)(F)F)cn34)n2)[C@H]1C (some centres unmarked) [I-172]  7.00 to 8.00
3  CC1(C)C[C@H]1CN1CCN(c2ccnc(-c3cnc4ccc(C(F)(F)F)cn34)n2)C[C@H]1c1cn[nH]c1 [I-526]  7.00 to 8.00

Prompt: Need pIC50, item Cc1[nH]ncc1[C@@H]1C[C@H](O)CN(c2ccnc(-c3cnc4ccc(C(F)(F)F)cn34)n2)C1 [I-314]
Completion: > 8.00

Prompt: Can you check C[C@@H]1CN(c2ccnc(-c3cnc4ccc(C(F)(F)F)cn34)n2)C[C@@H](C(N)=O)O1 [I-265] next?
Completion: 7.00 to 8.00

Prompt: Can you check C[C@H]1C[C@@H](c2cn[nH]c2)CN(c2nccc(-c3cnc4ccc(Cl)cn34)n2)C1 [I-199] next?
Completion: > 8.00

Prompt: Can you check CC(=O)N1CCN(c2ccnc(-c3cnc4ccc(C(F)(F)F)cn34)n2)CC1(C)C [I-336] next?
Completion: 7.00 to 8.00

###

molecular target: intracellular GCN2 (phosphorylation of the GCN2 substrate eIF2α) (Homo sapiens (Human), UniProt Q9P2K8); assay: GCN2 Cellular Inhibition Assay (AlphaScreen SureFire P-eIF2α Ser51, borrelidin-treated U2OS cells); type: cell-based; settings: 10 μM borrelidin, 1 h, phosphorylated eIF2α Ser51, read-out: GCN2 Biomarker (IC50)
Sequence (Q9P2K8 whole entry): as above
Assay Endpoint: IC50

// worked examples, IC50 included
>>> df
                                   molecule          result
0  O=C(c1c[nH]cn1)N1CCN(c2ccnc(-c3cnc4ccc(C(F)(F)F)cn34)n2)CC1c1cn[nH]c1 (stereo not shown)  500 to 5000 nM
1  FC(F)(F)c1ccc2ncc(-c3nccc(N4CCN[C@@H](c5cn[nH]c5)C4)n3)n2c1        < 500 nM
2  FC(F)(F)c1ccc2ncc(-c3ccnc(N4CCOC(c5cn[nH]c5)C4)n3)n2c1 (stereo not shown) [I-9]        < 500 nM
3  NC(=O)C1CN(c2ccnc(-c3cnc4ccc(Cl)cn34)n2)CCN1C1CC1 (stereo not shown)  500 to 5000 nM
4  C[C@@H]1[C@@H](c2cn[nH]c2)NCCN1c1ccnc(-c2cnc3ccc(C(F)(F)F)cn23)n1  500 to 5000 nM
5  Cc1[nH]ncc1[C@H]1CN(c2ccnc(-c3cnc4ccc(C(F)(F)F)cn34)n2)C[C@H](C)O1        < 500 nM
6  C[C@@H]1C[C@H](N=S(C)(C)=O)CN(c2ccnc(-c3cnc4ccc(C5CC5)cn34)n2)C1  500 to 5000 nM
7  CS(=O)(=O)NC1CC(C(F)(F)F)CN(c2ccnc(-c3cnc4ccc(C(F)F)cn34)n2)C1 (stereo not shown)        < 500 nM

Prompt: Need IC50, item CC1CN(c2ccnc(-c3cnc4ccc(C(F)(F)F)cn34)n2)CC(C)N1C1CC1 (stereo not shown)
Completion: 500 to 5000 nM

Prompt: Can you check Cc1n[nH]cc1[C@@H]1CN(c2ccnc(-c3cnc4cc(Cl)c(C(F)(F)F)cn34)n2)C[C@H](C)O1 next?
Completion: < 500 nM

Prompt: Can you check CC(C)(C)OC(=O)N1CC2(C1)CN(c1ccnc(-c3cnc4ccc(C(F)(F)F)cn34)n1)CCO2 next?
Completion: 500 to 5000 nM

Prompt: Can you check CC1CN(c2ccnc(-c3cnc4ccc(Cl)cn34)n2)CC(c2cnn(S(C)(=O)=O)c2)N1S(C)(=O)=O (stereo not shown) next?
Completion: 500 to 5000 nM

Prompt: Can you check O[C@@H]1C[C@H](O)CN(c2ccnc(-c3cnc4ccc(C(F)(F)F)cn34)n2)C1 next?
Completion: 500 to 5000 nM

Prompt: Can you check C[C@H]1CN(c2nccc(-c3cnc4ccc(Cl)cn34)n2)C[C@@H](c2cn[nH]c2)O1 next?
Completion: < 500 nM

Prompt: Can you check C[C@H]1C[C@@H](N=S(C)(C)=O)CN(c2ccnc(-c3cnc4ccc(Cl)cn34)n2)C1 (stereo in doubt) next?
Completion: < 500 nM

Prompt: Can you check c1ccc(Oc2ccc3ncc(-c4nccc(N5CCC[C@@H](c6cn[nH]c6)C5)n4)n3c2)cc1 next?
Completion: 500 to 5000 nM
